All figures here come from ChEMBL document CHEMBL1130772.

Quick reference: EC50 of the listed items.
# Target or system: Androgen receptor (Homo sapiens, UniProt P10275)
# Sequence (P10275 whole entry): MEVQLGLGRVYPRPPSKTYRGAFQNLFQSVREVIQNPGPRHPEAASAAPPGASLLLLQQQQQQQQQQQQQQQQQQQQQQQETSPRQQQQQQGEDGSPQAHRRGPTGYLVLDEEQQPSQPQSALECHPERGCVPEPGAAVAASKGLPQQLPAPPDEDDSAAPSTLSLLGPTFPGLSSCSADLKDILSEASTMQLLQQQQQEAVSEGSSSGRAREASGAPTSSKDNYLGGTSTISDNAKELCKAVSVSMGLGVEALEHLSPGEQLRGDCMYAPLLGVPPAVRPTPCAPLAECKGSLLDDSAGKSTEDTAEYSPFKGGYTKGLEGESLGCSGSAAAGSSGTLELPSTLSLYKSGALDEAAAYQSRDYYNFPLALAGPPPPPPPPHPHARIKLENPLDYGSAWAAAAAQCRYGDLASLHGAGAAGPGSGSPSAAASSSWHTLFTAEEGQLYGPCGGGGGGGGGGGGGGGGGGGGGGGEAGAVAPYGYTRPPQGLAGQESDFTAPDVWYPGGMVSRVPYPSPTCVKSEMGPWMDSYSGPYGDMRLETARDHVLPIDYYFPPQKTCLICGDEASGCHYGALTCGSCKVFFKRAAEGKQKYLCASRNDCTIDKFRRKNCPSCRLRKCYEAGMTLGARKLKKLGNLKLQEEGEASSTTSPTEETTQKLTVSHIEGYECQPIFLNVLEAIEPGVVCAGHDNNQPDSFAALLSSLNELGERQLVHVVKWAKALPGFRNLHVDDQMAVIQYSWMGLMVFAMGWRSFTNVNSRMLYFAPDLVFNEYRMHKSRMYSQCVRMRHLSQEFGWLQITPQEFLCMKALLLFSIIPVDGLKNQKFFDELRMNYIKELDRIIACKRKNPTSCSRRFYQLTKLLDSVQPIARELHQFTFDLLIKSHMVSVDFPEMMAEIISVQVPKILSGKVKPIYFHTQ
# Procedure summary: Agonistic activity (EC50) against human androgen receptor (hAR) in co-transfected CV-1 cell
# Format: functional, cell-based
Report only the number, with the unit µM understood.

Below, 5 compounds whose answers are already recorded.
C[C@@H]1Cc2cc3c(C(F)(F)F)cc(=O)n(C)c3cc2N1
0.02
C[C@@H]1Cc2cc3c(C(F)(F)F)cc(O)nc3cc2N1
0.168
C[C@H]1Nc2cc3c(cc2C1(C)C)c(C(F)(F)F)cc(=O)n3C
0.38
Oc1cc(C(F)(F)F)c2cc3c(cc2n1)N[C@@H]1CCCC[C@H]31
0.005
Cn1c(=O)cc(C(F)(F)F)c2cc3c(cc21)N[C@@H]1CCCC[C@H]31
0.01

Moving on to the next compound.
Which EC50 is listed for C[C@H]1Nc2cc3[nH]c(=O)cc(C(F)(F)F)c3cc2C1(C)C ?
0.099

###

Quick reference: Efficacy of the listed items.
# Target or system: Mineralocorticoid receptor (Homo sapiens)
# Procedure summary: Antagonistic activity against hMR in co-transfected CV-1 cell
# Assay type: functional, cell-based

C[C@H]1CC[C@H]2Nc3cc4c(cc3[C@H]2C1)c(C(F)(F)F)cc(=O)n4C
< 20%

Which Efficacy is listed for CN1c2cc3c(cc2[C@H]2CCCC[C@H]21)c(C(F)(F)F)cc(=O)n3C ?
< 20%

Which Efficacy is listed for C[C@@H]1Cc2cc3c(C(F)(F)F)cc(O)nc3cc2N1 ?
< 20%

###

# Target or system: Mineralocorticoid receptor (Homo sapiens, UniProt P08235)
# Sequence (P08235 whole entry): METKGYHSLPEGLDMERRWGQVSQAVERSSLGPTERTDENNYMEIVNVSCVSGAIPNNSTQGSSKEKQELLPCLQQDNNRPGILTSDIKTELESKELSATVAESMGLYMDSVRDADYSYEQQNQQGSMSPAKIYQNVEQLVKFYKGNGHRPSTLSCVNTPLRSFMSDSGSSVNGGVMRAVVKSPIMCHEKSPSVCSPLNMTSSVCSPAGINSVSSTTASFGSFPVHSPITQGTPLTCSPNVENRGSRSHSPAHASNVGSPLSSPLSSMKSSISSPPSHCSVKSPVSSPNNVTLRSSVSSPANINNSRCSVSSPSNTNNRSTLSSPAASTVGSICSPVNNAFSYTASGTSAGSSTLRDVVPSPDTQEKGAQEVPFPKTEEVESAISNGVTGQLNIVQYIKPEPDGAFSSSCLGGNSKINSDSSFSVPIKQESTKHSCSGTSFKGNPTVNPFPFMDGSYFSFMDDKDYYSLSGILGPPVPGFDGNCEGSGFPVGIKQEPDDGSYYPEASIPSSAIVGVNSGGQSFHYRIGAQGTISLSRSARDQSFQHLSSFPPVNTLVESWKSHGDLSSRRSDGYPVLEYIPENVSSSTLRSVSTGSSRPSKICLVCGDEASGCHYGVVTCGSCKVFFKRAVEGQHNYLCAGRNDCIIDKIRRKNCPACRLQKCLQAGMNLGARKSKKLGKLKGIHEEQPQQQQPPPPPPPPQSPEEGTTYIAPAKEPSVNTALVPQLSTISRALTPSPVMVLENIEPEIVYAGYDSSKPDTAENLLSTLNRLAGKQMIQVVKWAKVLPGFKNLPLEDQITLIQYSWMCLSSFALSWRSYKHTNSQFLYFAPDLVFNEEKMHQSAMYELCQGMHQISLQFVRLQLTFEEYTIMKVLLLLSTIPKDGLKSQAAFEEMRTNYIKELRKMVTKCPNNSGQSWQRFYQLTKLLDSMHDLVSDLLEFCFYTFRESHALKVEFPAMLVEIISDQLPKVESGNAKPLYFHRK
# Procedure summary: Antagonistic activity against hMR in co-transfected CV-1 cell
pIC50: −log10 of the molar value.
Quick reference: pIC50 of the listed items.

Below, 2 compounds whose answers are already recorded.
CN1c2cc3c(cc2[C@H]2CCCC[C@H]21)c(C(F)(F)F)cc(=O)n3C
< 5.00
C[C@@H]1Cc2cc3c(C(F)(F)F)cc(O)nc3cc2N1
< 5.00

Moving on to the next compound.
Which pIC50 is listed for C[C@H]1CC[C@H]2Nc3cc4c(cc3[C@H]2C1)c(C(F)(F)F)cc(=O)n4C ?
< 5.00
